Hey, just so you know, these numbers are from ChEMBL document CHEMBL3259744.

test system: COLO 205; test: Cytotoxicity against human COLO205 cells after 72 hrs by MTT assay; type: functional, cell-based; conditions: COLO 205, 72 h
Property: pIC50
Give only the number. pIC50 is defined as minus log10 of concentration in molar units.

Asked: I'm curious: which pIC50 was measured for COc1cc(C(=O)c2cc(OC)c(OC)c(OC)c2)cc(NC(=O)/C=C/c2ccc(F)cc2)c1OC tested on COLO 205?
Given back: 5.51

Asked: I'm curious: which pIC50 was measured for COc1cc(C(=O)c2cc(OC)c(OC)c(OC)c2)cc(NC(=O)/C=C/c2cc(F)c(F)c(F)c2)c1OC tested on COLO 205?
Given back: 5.37

Asked: I'm curious: which pIC50 was measured for COc1ccc(/C=C/C(=O)Nc2cc(C(=O)c3cc(OC)c(OC)c(OC)c3)ccc2OC)cc1 tested on COLO 205?
Given back: 4.96

Asked: I'm curious: which pIC50 was measured for COc1ccc(C(=O)c2cc(OC)c(OC)c(OC)c2)cc1NC(=O)/C=C/c1cc(OC)c(OC)c(OC)c1 tested on COLO 205?
Given back: 5.28

Asked: I'm curious: which pIC50 was measured for COc1ccc(/C=C/C(=O)Nc2cc(C(=O)c3cc(OC)c(OC)c(OC)c3)cc(OC)c2OC)cc1 tested on COLO 205?
Given back: 5.32

Asked: I'm curious: which pIC50 was measured for COc1ccc(C(=O)c2cc(OC)c(OC)c(OC)c2)cc1NC(=O)/C=C/c1ccc([N+](=O)[O-])cc1 tested on COLO 205?
Given back: 4.94

Asked: I'm curious: which pIC50 was measured for COc1cc(C(=O)c2cc(OC)c(OC)c(OC)c2)cc(NC(=O)/C=C/c2cc(OC)c(OC)c(OC)c2)c1OC tested on COLO 205?
Given back: 5.28

Asked: I'm curious: which pIC50 was measured for COc1ccc(C(=O)c2cc(OC)c(OC)c(OC)c2)cc1NC(=O)/C=C/c1ccc(N)cc1 tested on COLO 205?
Given back: 4.99
